Below, each entry is listed with its recorded hepatocyte CLint at 1 µM.
# Assay Method Text: Human Hepatocyte Stability (Test D)
# Format: in vitro ADME
# Experimental Context: human, cryopreserved pooled human hepatocytes (LiverPool 10-Donor), geometric mean if run multiple times
Unit µL/min/1e6 cells implied. Number only.

COc1cc(F)c(O[C@H]2CC[C@@](C)(C(=O)O)CC2)cc1C(=O)N[C@@H]1[C@H]2CC[C@H](C2)[C@@H]1C(=O)NCC(C)(C)C; 2.7
COc1cc(-c2cc(C(=O)N[C@H]3[C@@H](C(=O)Nc4cccc(S(=O)(=O)C(F)(F)F)c4)[C@@H]4C=C[C@H]3C4)c(OC)cc2F)ccc1C(=O)O (racemic); 11

Next item in the queue.
Prompt: If you can, please state the reported hepatocyte CLint at 1 µM value of COc1cc(C(F)F)c(O[C@H]2CC[C@@](C)(C(=O)O)CC2)cc1C(=O)N[C@@H]1[C@H]2CC[C@H](C2)[C@@H]1C(=O)NCC1(C)CCC1 .
Completion: 5.1
